- Test system: Zika virus NS2B-NS3 protease (linked construct)
- test_name: Primary screen NINDS Rhodamine qHTS for Zika virus inhibitors (AID 1347160); note: nearly all actives have a fitted effect of over 55% in size
- assay_context: purified NS2B-NS3 protease, Rhodamine110 substrate fluorescence; series mostly up to 57.1 µM
Records with an inconclusive call do not appear. Calls of active or inactive are those of the source. Calls come from the whole dose curve; as a rule, active = well fitted inhibition curve with a large enough effect; inconclusive = small, poorly fitted or top-dose-only effect; inactive = no such curve, though single readings can be large or run the other way.
Form entry, call: pick from active, inactive

Examples from the recorded data:
[
  {
    "compound": "COc1cc(C)c(C(=O)O[C@H]2[C@@H](O)[C@H](n3ccc(=O)[nH]c3=O)O[C@@H]2CO)c(OC)c1",
    "assigned_category": "inactive"
  },
  {
    "compound": "CC1CC(=O)C2=C(O1)OC1(C)CCC3C(C)(C)C=CC(=O)C3(C)C1C2 (centres undefined)",
    "assigned_category": "active"
  },
  {
    "compound": "CC1=CC(=O)C2C(C)(C)CCCC2(C)C12CCC1(COC(=O)C1)O2 (centres undefined)",
    "assigned_category": "inactive"
  }
]

[ask] Kindly provide the recorded test outcome for the following compound: `CC(=O)OC[C@@]12[C@@H](OC(C)=O)C[C@@H](C)[C@](C)([C@@H]3C[C@H]4C=CO[C@H]4O3)[C@H]1CCC[C@]21CO1`
[reply] inactive

[ask] Kindly provide the recorded test outcome for the following compound: `C=C(C)[C@H]1C[C@@H](O)C(=C)CC[C@@H](O)C(=C)[C@@H](O)C1`
[reply] inactive

[ask] Kindly provide the recorded test outcome for the following compound: Cc1nnc(C(C)C)n1C1CC2CCC(C1)N2CC[C@H](NC(=O)C1CCC(F)(F)CC1)c1ccccc1 (some centres undefined)
[reply] inactive

[ask] Kindly provide the recorded test outcome for the following compound: Nc1nc(CC(=O)Nc2ccc(CCNCC(O)c3ccccc3)cc2)cs1 (centres undefined)
[reply] inactive

[ask] Kindly provide the recorded test outcome for the following compound: COc1cc(COC2OC(CO)C(O)C(O)C2O)cc(OC)c1O (centres undefined)
[reply] inactive

[ask] Kindly provide the recorded test outcome for the following compound: CCn1cc(C2=NOC(C(=O)Nc3c(C)n(C)n(-c4ccccc4)c3=O)C2)c(C)n1 (centres undefined)
[reply] inactive

[ask] Kindly provide the recorded test outcome for the following compound: CCC(NC(=O)CC(NC(=O)C(CO)NC(=O)C(CC)NC(=O)c1ccc[nH]1)c1ccccc1)C(=O)O (centres undefined)
[reply] inactive

[ask] Kindly provide the recorded test outcome for the following compound: NC1CCC(N[C@@H]2C[C@H]2c2ccccc2)CC1 (some centres undefined)
[reply] inactive

[ask] Kindly provide the recorded test outcome for the following compound: COc1cc(C2Oc3c(O)cc(CCCO)cc3C2CO)ccc1O[C@H]1O[C@H](C)[C@@H](O)[C@H](O)[C@@H]1O (some centres undefined)
[reply] inactive

[ask] Kindly provide the recorded test outcome for the following compound: CC(C#N)C(C)O[C@@H]1O[C@H](CO)[C@@H](O)[C@H](O)[C@H]1O (some centres undefined)
[reply] inactive

[ask] Kindly provide the recorded test outcome for the following compound: CC1(C)C(O)CCC2(C)C1C(O)C=C1COC(=O)C12O (centres undefined)
[reply] inactive

###

- test_name: Cell Viability - LYMP2-019 (AID 973);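 note: cells exposed to compound for 24 h at 37 °C; 0% = DMSO alone and full effect = 92 µM tetraoctylammonium bromide; nearly all actives have a fitted effect of over 55% in size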
- assay_context: LYMP2-019 lymphoblastoid cell line viability; series mostly up to 92.2 µM
Results filed as inconclusive are left out. Active and inactive are the calls of the source. Calls follow the shape of the dose curve; as a rule, active = well fitted cell-killing curve with a large enough effect; inconclusive = small, poorly fitted or top-dose-only effect; inactive = flat fitted curve, though single readings scatter.
Form entry, call: pick from label 1 = active, label 0 = inactive

Examples from the recorded data:
[
  {
    "smiles_repr": "CCOC(C)=O",
    "assigned_category": "label 0"
  },
  {
    "smiles_repr": "CC1=C2[C@@H]([C@H](C)CC[C@H]2/C=C(\\C)C(=O)O)[C@H](O)C1",
    "assigned_category": "label 0"
  }
]

// next entry
[ask] Kindly provide the recorded test outcome for the following compound: `CC(C)=O`
[reply] label 0

###

- System: OV90
- test_name: Primary qHTS to identify gynecologic anti-cancer compounds using libraries of approved drugs and bioactive compounds (AID 1345084); note: % is set by controls: 0 for no effect and ±100 for the full control effect; nearly all actives have a fitted effect of over 55% in size
- assay_context: Gynecologic cancer cell panel viability, ATPlite luminescence, 48 h; series mostly up to 57.5 µM
Inconclusive results are not listed. Activity calls are given as the source filed them. Calls follow the shape of the dose curve; as a rule, active = well fitted cell-killing curve with a large enough effect; inconclusive = small, poorly fitted or top-dose-only effect, or effect the other way; inactive = flat fitted curve, though single readings scatter.
experimental_readout: activity change, negative = cytotoxicity

The examples below pair each entry with its known result.
[
  {
    "compound": "COc1cc(C2OCC3C(c4ccc(OC5OC(CO)C(O)C(O)C5O)c(OC)c4)OCC23)ccc1O (stereo not given)",
    "activity change, negative = cytotoxicity": "inactive"
  },
  {
    "compound": "CCCCS(=O)(=O)Nc1ncnc(OCCOc2ncc(Br)cn2)c1-c1ccc(Br)cc1",
    "activity change, negative = cytotoxicity": "inactive"
  },
  {
    "compound": "CN1Cc2c(N)cccc2C(c2ccccc2)C1 (stereo not given)",
    "activity change, negative = cytotoxicity": "inactive"
  },
  {
    "compound": "O=C(O)C[C@H]1CCC(=O)[C@@H]1C/C=C\\CCOC1OC(CO)C(O)C(O)C1O (stereo not given in full)",
    "activity change, negative = cytotoxicity": "inactive"
  },
  {
    "compound": "CC(=O)NC(CCC(=O)O)C(=O)NCCc1ccc(O)cc1 (stereo not given)",
    "activity change, negative = cytotoxicity": "inactive"
  }
]

[ask] Fill blank: measured activity change, negative = cytotoxicity of the compound CC1(C)C(=O)N2c3ccccc3[C@]3(CC(n4cnc5ccccc5c4=O)C(=O)O3)[C@H]2N1O (stereo not given in full) is ____.
[reply] inactive

[ask] Fill blank: measured activity change, negative = cytotoxicity of the compound `CCNC(=O)[C@H]1O[C@H](n2cnc3c(NCC(c4ccccc4)c4ccccc4)nc(C(=O)NCCNC(=O)NC4CCN(c5ccccn5)CC4)nc32)[C@H](O)[C@@H]1O` is ____.
[reply] inactive

[ask] Fill blank: measured activity change, negative = cytotoxicity of the compound N#CC1C(=O)Nc2scc(-c3ccc(-c4ccccc4O)cc3)c2C1=O (stereo not given) is ____.
[reply] inactive

[ask] Fill blank: measured activity change, negative = cytotoxicity of the compound C[C@@H]1C(=O)O[C@H]2CC34[C@H]5C[C@@H](C(C)(C)C)C36[C@@H](OC(=O)[C@@H]6O)OC4(C(=O)O5)[C@]21O (stereo not given in full) is ____.
[reply] inactive

[ask] Fill blank: measured activity change, negative = cytotoxicity of the compound C[C@@H]1O[C@@H](O[C@H]2[C@H](O[C@H]3CO[C@@H](O[C@H]4CC[C@@]5(C)C(CC[C@]6(C)C5CC[C@]57OC[C@@]8(CC[C@](C)(CO)CC85)[C@H](O)C[C@]76C)C4(C)C)[C@H](O[C@@H]4O[C@H](CO)[C@@H](O)[C@H](O)[C@H]4O)[C@H]3O)O[C@H](CO)[C@@H](O)[C@@H]2O)[C@H](O)[C@H](O)[C@H]1O (stereo not given in full) is ____.
[reply] 0.0764% [at 11.6 µM] (inactive)

[ask] Fill blank: measured activity change, negative = cytotoxicity of the compound COc1cc(/C=C/C(=O)OC(C)(C)C(OC2OC(CO)C(O)C(O)C2O)C(=O)OCc2ccc(OC3OC(CO)C(O)C(O)C3O)cc2)ccc1O (stereo not given) is ____.
[reply] inactive

[ask] Fill blank: measured activity change, negative = cytotoxicity of the compound `CC(C)CNC(=O)/C=C/CCCCc1ccc2c(c1)OCO2` is ____.
[reply] inactive

[ask] Fill blank: measured activity change, negative = cytotoxicity of the compound `OC[C@H]1O[C@@H](Oc2ccc(O)c3cccc(O)c23)[C@H](O)[C@@H](O)[C@@H]1O` is ____.
[reply] inactive

[ask] Fill blank: measured activity change, negative = cytotoxicity of the compound `O=C(O[C@H]1[C@@H]2C=CO[C@@H](O[C@@H]3O[C@H](CO)[C@@H](O)[C@H](O)[C@H]3O)[C@@H]2[C@@]2(CO)O[C@@H]12)c1ccc(O)c(O)c1` is ____.
[reply] inactive

[ask] Fill blank: measured activity change, negative = cytotoxicity of the compound CC[C@H]1OC(=O)[C@H](C)[C@@H](OC2C[C@@](C)(OC)[C@@H](O)[C@H](C)O2)[C@H](C)[C@@H](OC2O[C@H](C)C[C@H](NC)[C@H]2O)[C@](C)(O)C[C@@H](C)CN(C)[C@H](C)[C@@H](O)[C@]1(C)O (stereo not given in full) is ____.
[reply] inactive

[ask] Fill blank: measured activity change, negative = cytotoxicity of the compound C[C@@H]1O[C@@H](O[C@H]2[C@H](OC(=O)C34CCC(C)(C)CC3C3=CCC5C6(C)CC(O)C(O[C@@H]7O[C@H](CO)[C@@H](O)[C@H](O)[C@H]7O)C(C)(C(=O)O)C6CCC5(C)C3(CO)CC4)O[C@H](C)[C@H](O)[C@@H]2O)[C@H](O)[C@H](O)[C@H]1O[C@@H]1OC[C@@H](O)[C@H](O)[C@H]1O (stereo not given in full) is ____.
[reply] 3.81% [at 11.6 µM] (inactive)

[ask] Fill blank: measured activity change, negative = cytotoxicity of the compound C[C@@H]1O[C@@H](O[C@@H]2[C@@H](O)[C@H](O[C@@H]3[C@@H](O)[C@@H](O)[C@H](O[C@H]4[C@H](OC(=O)[C@]56CCC(C)(C)C[C@H]5C5=CCC7[C@@]8(C)C[C@H](O)[C@H](O[C@@H]9O[C@@H](C)[C@H](O)[C@@H](O)[C@H]9O)[C@@](C)(CO)C8CC[C@@]7(C)[C@]5(C)C[C@H]6O)O[C@H](C)[C@H](O)[C@@H]4O)O[C@H]3C)OC[C@H]2O)[C@H](O)[C@H](O)[C@H]1O (stereo not given in full) is ____.
[reply] 4.8% [at 6.55 µM] (inactive)

[ask] Fill blank: measured activity change, negative = cytotoxicity of the compound `O=C1CC(c2ccc([N+](=O)[O-])cc2)=NN1c1ccccc1` is ____.
[reply] inactive

[ask] Fill blank: measured activity change, negative = cytotoxicity of the compound `C[C@@H]1O[C@@H](O[C@@H]2[C@@H](O)[C@@H](O)[C@H](O[C@@H]3[C@@H](O)[C@@H](O[C@]4(CO)O[C@H](CO)[C@@H](O)[C@@H]4OC(=O)/C=C/c4ccc(O)cc4)O[C@H](CO)[C@H]3OC(=O)/C=C/c3ccc(O)cc3)O[C@H]2C)[C@H](O)[C@H](O)[C@H]1O` is ____.
[reply] 7.74% [at 11.6 µM] (inactive)

[ask] Fill blank: measured activity change, negative = cytotoxicity of the compound CC1CC(O)CC(C)(C)C1(O)CCO (stereo not given) is ____.
[reply] inactive

[ask] Fill blank: measured activity change, negative = cytotoxicity of the compound CC(=O)OC1C=C(C(=O)O)C2(CO)CCC(C)C(C)(CCc3ccoc3)C2C1 (stereo not given) is ____.
[reply] inactive

[ask] Fill blank: measured activity change, negative = cytotoxicity of the compound `CC(=O)OC[C@@]12[C@@H](OC(C)=O)C[C@@H](C)[C@](C)([C@@H]3C[C@H]4C=CO[C@H]4O3)[C@H]1CCC[C@]21CO1` is ____.
[reply] inactive

[ask] Fill blank: measured activity change, negative = cytotoxicity of the compound `COc1cc(C(C)=O)ccc1O[C@@H]1O[C@H](CO[C@@H]2O[C@@H](C)[C@H](O)[C@@H](O)[C@H]2O)[C@@H](O)[C@H](O)[C@H]1O` is ____.
[reply] inactive

[ask] Fill blank: measured activity change, negative = cytotoxicity of the compound `Cc1c(N2C(=O)c3ccc(C(=O)O)cc3C2=O)c(=O)n(-c2ccccc2)n1C` is ____.
[reply] inactive

[ask] Fill blank: measured activity change, negative = cytotoxicity of the compound CC1(C(=O)O)CCCC2(C)C1CCC13CC(CCC21)C1(CO)OC31 (stereo not given) is ____.
[reply] inactive
